Source of measurements: patent US20230192834A1

Record form. Attribute: pKd. Fill in for each entry.
- MEASUREMENT TARGET: T1, TGFβ2 (R&D Systems)
- T1 sequence (P61812 303-414, species assumed, looked up): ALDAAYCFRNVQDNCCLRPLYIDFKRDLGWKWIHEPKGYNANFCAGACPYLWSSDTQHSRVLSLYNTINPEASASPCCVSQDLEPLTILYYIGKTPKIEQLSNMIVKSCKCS
- ASSAY EXPLANATION: SPR (Biacore T200), TGFβ amine-coupled to chip, 1:1 fit
Formally, pKd is defined as -log10 of the concentration c, with c in mol/L.

Tell me the measured pKd of Felinized anti-TGFβ1,2,3 antibody VH2.1 - VL3 (antibody, V domains shown) VH: QVLLVQSGADVRKPGASVKIFCKASGYTFTSNVISWVRQTPAQGFEWMGGVIPIVDIANYAQRFKGRLVLTADTSTNTAYMELRSLKSADTAVYYCASTLGLVLDAMDYWGQGSLVTVSS VL: EIQMTQSPSSLSASPGDRVTITCRASQSLGSSYLAWYQQKPGKVPKLLIYGASSRAPGVPSRFSGSGSGTDFTLTISSLEPEDAATYYCQQYADSPITFGQGTKLEIKR , please.
8.72

Tell me the measured pKd of Caninized anti-TGFβ1,2,3 antibody VH3.1 - VL2 (ZTS-122) (antibody, V domains shown) VH: DVQLVESGGDLVKPGGSLRLTCVASGYTFSSNVMHWVRQAPGKGLQWVAYVIPIVDIAYYADSVKGRFTISIDNSKNTLYLQMNSLKTEDTATYYCARTLGLVLDAMDYWGQGTLVTVSS VL: ETVLTQSPGTLSLSPGERATLSCRASQSLGSSYLAWYQQKPGQAPRLLIYGASSRAPGVPARFSGSGSGTDFTLTISSLEPEDFAVYYCQQYADSPITFGQGTKLEIKR , please.
8.47

Tell me the measured pKd of Caninized anti-TGFβ1,2,3 antibody VH5.6 - VL2 (antibody, V domains shown) VH: EVQLVESGGDLVKPGGSLRLSCVASGFTFSSNVISWVRQAPGQGLEWMGGVIPIVDIANYAQRFKGRVTITADESTSTTYMELSSLRSEDTAVYYCASTLGLVLDAMDYWGQGTLVTVSS VL: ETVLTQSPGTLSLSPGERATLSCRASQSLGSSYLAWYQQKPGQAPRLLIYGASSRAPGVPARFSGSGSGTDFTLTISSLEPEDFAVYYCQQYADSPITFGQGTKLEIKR , please.
8.59
